meta.source: patent US20250215029A1

Consider the following molecules and their measured IC50 readings.
STUDY SYSTEM: Recombinant STAT6 protein (STAT6 (W123-T658)) (Homo sapiens)
Construct: Recombinant STAT6 protein (STAT6 (W123-T658))
Sequence (P42226 123-658): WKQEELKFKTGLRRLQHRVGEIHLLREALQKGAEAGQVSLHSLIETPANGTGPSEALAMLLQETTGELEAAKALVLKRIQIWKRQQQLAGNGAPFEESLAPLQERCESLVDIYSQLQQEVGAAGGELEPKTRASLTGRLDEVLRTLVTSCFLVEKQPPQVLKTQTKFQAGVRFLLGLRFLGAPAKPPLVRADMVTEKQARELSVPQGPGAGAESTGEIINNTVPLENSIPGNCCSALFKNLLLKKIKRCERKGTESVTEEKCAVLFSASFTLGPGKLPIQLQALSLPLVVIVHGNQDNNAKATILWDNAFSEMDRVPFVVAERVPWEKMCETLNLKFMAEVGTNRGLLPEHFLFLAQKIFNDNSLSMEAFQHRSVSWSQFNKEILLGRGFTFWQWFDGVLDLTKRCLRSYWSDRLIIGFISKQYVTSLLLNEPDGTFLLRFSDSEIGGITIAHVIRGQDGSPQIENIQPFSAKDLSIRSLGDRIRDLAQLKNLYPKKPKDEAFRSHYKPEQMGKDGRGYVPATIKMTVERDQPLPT
TEST PROTOCOL: STAT6 Fluorescence Polarization (FP) Assay
Format: binding
EXPERIMENTAL SETUP: STAT6 (W123-T658) 250 nM, probe 5-FAM-Ap[…]-NH2 2 nM, 45-minute incubation; read-out: STAT6 (FP assay IC50 class)

Please review the following examples before continuing.
Cc1cc(C2CN(C(=O)[C@@H]3CC[C@@H]4CCCC[C@H](NC(=O)c5cc6cc(C(F)(F)P(=O)(O)O)ccc6s5)C(=O)N43)CC2C#N)cc(=O)[nH]1 (single isomer, unassigned) [Compound 876] : 0.3 to 3 µM
O=C(N[C@H]1CCCC[C@H]2CC[C@@H](C(=O)N3Cc4cccnc4C3)N2C1=O)c1cc2cc(C(F)(F)P(=O)(O)O)ccc2s1 [Compound 801] : 3 to 30 µM

Moving on to the next molecule.
Entry O=C(N[C@H]1CCC[C@H]2CC[C@@H](C(=O)N3CC(n4ccc(=O)nc4)C3)N2C1=O)c1cc2cc(C(F)P(=O)(O)O)ccc2s1 (stereo partly drawn) [Compound 620] , IC50 reported as 0.3 to 3 µM
